test system: 521955-158-R2-J5-PDC complex spheroid viability; experiment: Anticancer human tumor 521955-158-R2-J5-PDC patient-derived pancreatic carcinoma cell line growth inhibition [GQUAD]; conditions: second compound 1 µM; first compound 0.1 µM; stronger effect = lower value;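 also: spheroids exposed to agents for one week before reading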
So basically: is viability, T/C under 30%? Then YES. Not under? Then NO.

Take a look at these entries with their results.
CC1COCCN1c1cc(C2(O)CC3CCC(C2)O3)c2cnn(-c3ccn[nH]3)c2n1 (stereo not given) + Cc1[nH]c2ccc(F)cc2c1-c1nc2c3cccnc3c3ncccc3c2[nH]1
YES
O=C(c1cc(Cc2n[nH]c(=O)c3ccccc23)ccc1F)N1CCN(C(=O)C2CC2)CC1 + Cc1cnc(CNC(=O)c2c(=O)c3ccc(N4CCCN(C)CC4)nc3n3c2sc2ccccc23)cn1
YES
CC(=O)O[C@H]1C(=O)[C@@]2(C)[C@H]([C@H](OC(=O)c3ccccc3)[C@]3(O)C[C@H](OC(=O)[C@H](O)[C@@H](NC(=O)c4ccccc4)c4ccccc4)C(C)=C1C3(C)C)[C@]1(OC(C)=O)CO[C@@H]1C[C@@H]2O + CN(C)c1ccc(Nc2c3ccc(NC(=O)CCN4CCCC4)cc3nc3cc(NC(=O)CCN4CCCC4)ccc23)cc1
NO
CC(C)n1c(=O)n(C)c2cnc3cc(F)c(-c4ccc(OCCCN5CCCCC5)nc4)cc3c21 + Cc1[nH]c2ccc(F)cc2c1-c1nc2c3cccnc3c3ncccc3c2[nH]1
NO

[Q] Given the entry CCCS(=O)(=O)Nc1ccc(F)c(C(=O)c2c[nH]c3ncc(-c4ccc(Cl)cc4)cc23)c1F + CN(C)c1ccc(Nc2c3ccc(NC(=O)CCN4CCCC4)cc3nc3cc(NC(=O)CCN4CCCC4)ccc23)cc1 , would its reported viability, T/C be below 30%?
[A] NO
